# METHOD_SUMMARY: Effect of albendazole on cell viability, MTT assay
# Type: cell-based
# PARTICULARS: monkey, Vero kidney epithelial cells, after 96 h
# Procedure: After this analysis, the effect on viability of albendazole on both HaCat (human skin keratinocyte) and Vero (monkey kidney epithelial cell) cells was evaluated by MTT assay. […] Subsequently, the culture medium was discharged, and the formation of formazan was measured by adding MTT (5 mg/mL in PBS, 25 µg/well) and incubating the wells for 3 h in the dark at 37 °C. […]
OUTCOME_MEASURE: CC50 at 96 h

Value lookup for CC50 at 96 h; key = "CCCSc1ccc2nc(NC(=O)OC)[nH]c2c1" 262 µM

###

# METHOD_SUMMARY: Effect of albendazole on cell viability, MTT assay
# Type: cell-based
# PARTICULARS: human, HaCat keratinocyte cells, after 96 h
OUTCOME_MEASURE: CC50 at 96 h (µM)
Just the number in µM, nothing appended.

Data request, read-out CC50 at 96 h, for CCCSc1ccc2nc(NC(=O)OC)[nH]c2c1 [Albendazole] 85.1

###

# Tested on: Fonsecaea pedrosoi (CFP 00791)
# METHOD_SUMMARY: NIH Clinical Collection screening for antifungal activity (growth inhibition, OD 530 nm)
# Type: cell-based
# PARTICULARS: 10 µM; CFP00791 Fonsecaea pedrosoi isolate; 72–96 h; read-out: % Growth Inhibition
As shown below, each of these compounds has a reported inhibition at 10 µM value.
The figure you give is taken to be in %; do not add the unit.

Some compounds with known inhibition at 10 µM results, for comparison:
# COMPOUND, inhibition at 10 µM (%)
measured = [
    ("Clc1ccc(COC(Cn2ccnc2)c2ccc(Cl)cc2Cl)c(Cl)c1 (centres unmarked) [Miconazole nitrate]", 99),
    ("CN(C)CC/C=C1/c2ccccc2COc2ccc(CC(=O)O)cc21", 85),
    ("C=CC[C@@H]1/C=C(\\C)C[C@H](C)C[C@H](OC)[C@H]2O[C@@](O)(C(=O)C(=O)N3CCCC[C@H]3C(=O)O[C@H](/C(C)=C/[C@@H]3CC[C@@H](O)[C@H](OC)C3)[C@H](C)[C@@H](O)CC1=O)[C@H](C)C[C@@H]2OC", 89),
    ("c1ccc2[nH]c(-c3cscn3)nc2c1", 82),
    ("CCC(C)n1ncn(-c2ccc(N3CCN(c4ccc(OCC5COC(Cn6cncn6)(c6ccc(Cl)cc6Cl)O5)cc4)CC3)cc2)c1=O (centres unmarked)", 100),
]

For "OCCN1C[C@H](O)[C@@H](O)[C@H](O)[C@H]1CO" , what is its reported inhibition at 10 µM? 90

I am curious: what inhibition at 10 µM value has been reported for "CC(=O)NC[C@H]1CN(c2ccc(N3CCOCC3)c(F)c2)C(=O)O1" ? 87

If you can, please state the reported inhibition at 10 µM value of "COC(=O)Nc1nc2ccc(C(=O)c3ccccc3)cc2[nH]1" . 83

###

The following compounds are shown together with reported inhibition at 10 µM values.
# Test system: Fonsecaea pedrosoi (CFP 00791)
# METHOD_SUMMARY: NIH Clinical Collection screening for antifungal activity (growth inhibition, OD 530 nm)
# Type: cell-based
# PARTICULARS: 10 µM; CFP00791 Fonsecaea pedrosoi isolate; 72–96 h; read-out: % Growth Inhibition
Write down the numeric answer in % and omit the unit.

As a guide, the following entries are already answered.
# COMPOUND, UOM, NUMERIC_VALUE
data = [
    ("Clc1ccc(COC(Cn2ccnc2)c2ccc(Cl)cc2Cl)cc1 (stereo not drawn) [Econazole nitrate]", "%", 94),
    ("CN1CCCCC1CCN1c2ccccc2Sc2ccc([S+](C)[O-])cc21 (stereo not drawn) [Mesoridazine (Serentil), Mesoridazine]", "%", 86),
    ("O=c1[nH]c(=O)n([C@H]2C[C@H](O)[C@@H](CO)O2)cc1F [Floxuridine]", "%", 86),
]

Given the entry O=c1[nH]cc(F)c(=O)[nH]1 [5-Fluorouracil] , report its measured inhibition at 10 µM. 85

Item O=C(NCC1CCCCN1)c1cc(OCC(F)(F)F)ccc1OCC(F)(F)F (stereo not drawn) [Flecainide Acetate] has what recorded inhibition at 10 µM? 95

Give the measured inhibition at 10 µM of Nc1nc(=O)[nH]cc1F [5-Fluorocytosine] . 68

State the recorded inhibition at 10 µM for this entry: CCCCCCNC(=O)n1cc(F)c(=O)[nH]c1=O [Carmofur] 100

Record request: inhibition at 10 µM value, item CN1C(=O)CC[C@H]1c1cccnc1 [Cotinine (nicotine), Cotinine] 71

Need inhibition at 10 µM of COCCCOc1ccnc(C[S+]([O-])c2nc3ccccc3[nH]2)c1C (stereo not drawn) [Rabeprazole] , thanks. 61
